Molecular target: Sigma intracellular receptor 2 (Homo sapiens)
Sequence (Q5BJF2 whole entry): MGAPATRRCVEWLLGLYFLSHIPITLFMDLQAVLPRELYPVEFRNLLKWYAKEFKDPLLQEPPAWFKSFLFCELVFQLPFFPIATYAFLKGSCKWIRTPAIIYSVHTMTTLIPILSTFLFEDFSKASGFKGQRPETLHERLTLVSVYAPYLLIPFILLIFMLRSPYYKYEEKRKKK
Test: PDSP Secondary Binding target: TMEM97 - Compounds are tested at 10 uM concentration, plate are incubated at room temperature in the dark for 90 minutes. Reaction are stopped by vacuum filtration onto 0.3% polyethyleneimine soaked filter mats using Filtermate harvester. Scintillation cocktail is then melted onto microwave-dried filters on a hot plate and the radio activity is counted in Microbia counter.
Structures can show the parent of a compound that is named as a salt.
# key: entry, value: log10(Ki)
Note the log scale: values are log10 of Ki expressed in nM.

Example cases with answers are listed next.
molecule: CN(C)S(=O)(=O)c1ccc(NC(=S)N2CCC(C(O)(c3ccccc3)c3ccccc3)CC2)cc1
log10(Ki): 2.38
//
molecule: O=C(c1cc2c(cc1F)OC(c1ccc(F)cc1)(c1ccc(Cl)cc1Cl)O2)N1CCOCC1 (stereo not drawn)
log10(Ki): 2.71
//
molecule: CCCCCCCCCCCCC/C=C/[C@@H](O)[C@@H](N)COP(=O)(O)O
log10(Ki): 2.83
//
molecule: Cc1cc(C)cc(-c2cnc3cc(Cl)c(-c4cccc(O)c4)cc3c2OCCCN)c1
log10(Ki): 3.72
//
molecule: C[N+]1(C)[C@@H]2C[C@@H](OC(=O)C(O)(c3cccs3)c3cccs3)C[C@H]1[C@@H]1O[C@@H]12 [TIOTROPIUM BROMIDE]
log10(Ki): 3.31
//
molecule: Cc1nc(-c2ccc(-c3ccc(C(=O)N4CCc5cc6c(cc54)C4(CCN(C)CC4)CO6)cc3)c(C)c2)no1 [SB-224289]
log10(Ki): 2.70
//
molecule: CO[C@@H]1COCC[C@@H]1N[C@@H]1CC[C@@](C(=O)N2CCc3ncc(C(F)(F)F)cc3C2)(C(C)C)C1 [MK-0812]
log10(Ki): 3.27
//
molecule: Cc1c(P(=S)(c2ccccc2)c2ccccc2)n2ccccc2[n+]1C/C=C/c1ccccc1
log10(Ki): 2.85
//
molecule: CCc1cc2c(cc1CC)CC(NC[C@H](O)c1ccc(O)c3[nH]c(=O)ccc13)C2 [INDACATEROL]
log10(Ki): 2.03
//
molecule: CN(C)C(=O)C(CCN1CCC(O)(c2ccc(Cl)cc2)CC1)(c1ccccc1)c1ccccc1 [LOPERAMIDE HYDROCHLORIDE]
log10(Ki): 1.56

Recorded result, CCCCCNC(=N)N/N=C/c1c[nH]c2ccc(OC)cc12 [TEGASEROD MALEATE] , log10(Ki): 1.76

The molecule identified as Brc1c(NC2=NCCN2)ccc2nccnc12 registered its log10(Ki) at 3.18

log10(Ki) recorded for this molecule, Cc1ccc(O)c([C@H](CCN(C(C)C)C(C)C)c2ccccc2)c1 [TOLTERODINE TARTRATE] , is 2.22

Sample CC(C)NCC(O)COc1ccc(CCOCC2CC2)cc1 (stereo not drawn) [BETAXOLOL HYDROCHLORIDE] ; log10(Ki) observed: 3.22

Reported log10(Ki) of O=S1(=O)c2cccc3cccc(c23)N1CCCN1CCN(c2ccc(F)cc2)CC1 [FANANSERIN] : 3.12

log10(Ki) measured on CCN(CC)CCCCC1CCN(CC(=O)N2c3ccccc3C(=O)Nc3cccnc32)CC1 = 3.12

Recorded result, Nc1nc(NCCc2ccc(O)cc2)nc2nc(-c3ccco3)nn12 [ZM-241385] , log10(Ki): 3.03

Sure, the documented log10(Ki) for CCCSc1nc(N[C@@H]2C[C@H]2c2ccc(F)c(F)c2)c2nnn([C@@H]3C[C@H](OCCO)[C@@H](O)[C@H]3O)c2n1 [TICAGRELOR] is 3.11

Reported log10(Ki) ( CCc1nn(CCCN2CCN(c3cccc(Cl)c3)CC2)c(=O)n1CCOc1ccccc1 [NEFAZODONE HYDROCHLORIDE] ) = 2.35

For this molecule ( COc1ccc2cc(S(=O)(=O)N[C@H](CC(=O)N[C@H](Cc3ccc(CN4[C@H](C)CCC[C@@H]4C)cc3)C(=O)N(C)C(C)C)c3ccc4c(c3)OCO4)ccc2c1 ), measured log10(Ki) is 1.80

----------
Where a name gives a salt, the structure may show the parent alone.
UniProtKB P35462 pKi data
Sequence (P35462 whole entry): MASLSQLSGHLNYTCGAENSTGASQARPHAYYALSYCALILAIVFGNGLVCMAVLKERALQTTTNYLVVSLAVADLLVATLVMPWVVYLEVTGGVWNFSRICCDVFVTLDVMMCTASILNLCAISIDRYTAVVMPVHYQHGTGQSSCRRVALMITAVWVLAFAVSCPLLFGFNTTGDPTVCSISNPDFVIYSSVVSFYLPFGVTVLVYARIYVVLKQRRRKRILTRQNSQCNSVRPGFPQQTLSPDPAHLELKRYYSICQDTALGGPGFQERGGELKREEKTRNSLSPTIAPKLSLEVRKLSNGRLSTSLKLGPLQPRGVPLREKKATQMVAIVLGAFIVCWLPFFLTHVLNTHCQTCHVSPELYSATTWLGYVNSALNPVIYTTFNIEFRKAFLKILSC
pKi is defined as minus the log10 of a concentration measured in mol/L.

molecule: CCc1cc2c(cc1CC)CC(NC[C@H](O)c1ccc(O)c3[nH]c(=O)ccc13)C2 [INDACATEROL]
assay.system: UniProtKB P35462
pKi: 5.87
//
molecule: N#Cc1ccc2[nH]cc(CCCCN3CCN(c4ccc5oc(C(N)=O)cc5c4)CC3)c2c1 [VILAZODONE HYDROCHLORIDE]
assay.system: UniProtKB P35462
pKi: 6.88
//
molecule: Cc1cc(C)cc(-c2cnc3cc(Cl)c(-c4cccc(O)c4)cc3c2OCCCN)c1
assay.system: UniProtKB P35462
pKi: 6.38
//
molecule: CN1CCCC(n2nc(Cc3ccc(Cl)cc3)c3ccccc3c2=O)CC1 (stereo not drawn) [AZELASTINE HYDROCHLORIDE]
assay.system: UniProtKB P35462
pKi: 6.20
//
molecule: Cc1cc([C@@H](C)Nc2cccc(-c3cc(C)c(C(=O)N[C@@H](C)C(=O)O)c(C)c3)c2)ccc1Cl
assay.system: UniProtKB P35462
pKi: 5.95
//
molecule: Cc1csc2c(N[C@@H](C)CN3CCN(S(=O)(=O)c4ccc(Cl)c(Cl)c4)CC3)ncnc12
assay.system: UniProtKB P35462
pKi: 6.24
//
molecule: O=C(O)CC1CCC2(CC1)CCN(c1cc(OC(F)(F)F)ccc1Cl)CC2
assay.system: UniProtKB P35462
pKi: 6.23
//
molecule: OC1(c2ccc(Cl)cc2)CCN(Cc2c[nH]c3ccccc23)CC1
assay.system: UniProtKB P35462
pKi: 6.69
//
molecule: COc1cccc([C@@H](C)NCCCc2ccccc2Cl)c1 [TECALCET HYDROCHLORIDE]
assay.system: UniProtKB P35462
pKi: 6.06
//
molecule: CN1C2CCC1CC(OC(c1ccc(F)cc1)c1ccc(F)cc1)C2 (stereo not drawn)
assay.system: UniProtKB P35462
pKi: 6.94

Simply: CN1C[C@H](C(=O)N[C@]2(C)O[C@@]3(O)[C@@H]4CCCN4C(=O)[C@H](Cc4ccccc4)N3C2=O)C[C@@H]2c3cccc4[nH]cc(c34)C[C@H]21 [DIHYDROERGOTAMINE MESYLATE] , UniProtKB P35462, pKi = 7.47

Assay UniProtKB P35462, sample Cc1cc(C(=O)N2Cc3cnn(C)c3Nc3ccccc32)ccc1CNC(=O)N1CCC[C@H]1C(=S)N1CCCN(C)CC1 , pKi read: 6.04

Kindly note: UniProtKB P35462, CCOC(=O)c1cc(C#N)c(N2CCC(C(=O)NS(=O)(=O)Cc3ccccc3)CC2)nc1C , pKi value reported: 5.55

----------
// endpoint Ki / system Sodium-dependent serotonin transporter (Homo sapiens)
Field format: number, assumed nM, no unit text.

Record excerpt, results attached:
structure.string: COC(=O)C1=C(C)NC(C)=C(C(=O)OCCCN2CCC(c3ccccc3)(c3ccccc3)CC2)[C@H]1c1cccc([N+](=O)[O-])c1
Ki [nM]: 862

structure.string: O=S1(=O)c2cccc3cccc(c23)N1CCCN1CCN(c2ccc(F)cc2)CC1
Ki [nM]: 1100

Kindly consider the entry below.
GET /values?item= COc1ccc(NC(=O)c2ccc(-c3ccc(-c4noc(C)n4)cc3C)cc2)cc1OCCN(C)C &system= Sodium-dependent serotonin transporter (Homo sapiens) returns Ki: 833

----------
Biological target: Histamine H1 receptor (Homo sapiens, UniProt P35367)
Sequence (P35367 whole entry): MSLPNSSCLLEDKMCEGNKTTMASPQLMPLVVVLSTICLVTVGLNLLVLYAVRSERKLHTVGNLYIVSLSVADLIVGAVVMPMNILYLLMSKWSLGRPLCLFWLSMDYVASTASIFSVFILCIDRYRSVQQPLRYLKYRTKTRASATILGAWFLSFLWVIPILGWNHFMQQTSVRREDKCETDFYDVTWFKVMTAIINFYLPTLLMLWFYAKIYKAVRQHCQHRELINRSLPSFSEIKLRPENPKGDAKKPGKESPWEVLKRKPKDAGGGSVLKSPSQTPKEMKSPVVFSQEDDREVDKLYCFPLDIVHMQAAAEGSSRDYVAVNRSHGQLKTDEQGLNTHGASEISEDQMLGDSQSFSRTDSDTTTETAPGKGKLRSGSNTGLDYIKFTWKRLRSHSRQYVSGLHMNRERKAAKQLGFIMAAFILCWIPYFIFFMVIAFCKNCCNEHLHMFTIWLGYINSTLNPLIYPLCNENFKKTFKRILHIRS
pKi: −log10 of the molar value. Counter-ions that a name gives are not always drawn.
Decide using pKi: a value greater than or equal to 6 is criterion met, a smaller one is criterion not met.

stdin: In plain terms: is recorded pKi at least 6 for Cc1nnn(-c2ccc(-c3ccc(C4(C(=O)O)CC4)cc3)cc2)c1NC(=O)O[C@H](C)c1ccccc1 ?
stdout: criterion not met

stdin: Check this compound for pKi at or above 6: Cc1c(P(=S)(c2ccccc2)c2ccccc2)n2ccccc2[n+]1C/C=C/c1ccccc1
stdout: criterion not met

stdin: Confirm if pKi reported for the compound COc1ccccc1N1CCN(CCCCNC(=O)c2ccc3ccccc3c2)CC1 is 6 or above.
stdout: criterion met

stdin: Does pKi meet or surpass 6 for CCc1nn(CCCN2CCN(c3cccc(Cl)c3)CC2)c(=O)n1CCOc1ccccc1 [NEFAZODONE HYDROCHLORIDE] ?
stdout: criterion met

stdin: Does the reported pKi for CSc1ccc(C(=O)N[C@@H]2CCCC[C@@H]2NC(=O)CNC(=O)c2cc(C(F)(F)F)ccc2NC(=O)NC(C)C)cc1 fall at or above the 6 mark?
stdout: criterion not met

stdin: Is it the case that NCCc1cn(S(=O)(=O)c2c(Cl)nc3sccn23)c2ccccc12 has pKi reaching or exceeding 6?
stdout: criterion not met

stdin: Evaluate Cc1ccccc1C(=O)Nc1ccc(C(=O)N2CCCC(O)c3cc(Cl)ccc32)c(C)c1 (stereo not given) [TOLVAPTAN] : pKi at minimum 6?
stdout: criterion not met

stdin: Answer whether pKi of N#Cc1ccc2[nH]cc(CCCCN3CCN(c4ccc5oc(C(N)=O)cc5c4)CC3)c2c1 [VILAZODONE HYDROCHLORIDE] is greater than or equal to 6.
stdout: criterion met

stdin: Check if pKi >= 6 (inclusive). Item: Cc1ccc(O)c([C@H](CCN(C(C)C)C(C)C)c2ccccc2)c1 [TOLTERODINE TARTRATE]
stdout: criterion met
